Listed here: items and their measured log10(ED50).
# System: adjuvant-induced arthritis in rats
# ASSAY_PROCEDURE: Established Adjuvant-Induced Arthritis in Rats
# Type: in vivo, Lewis (Wistar) male rats
# EXPERIMENTAL_SETUP: rat, oral gavage once daily for 7 days (days 14-20); paw volume of uninjected left hind paw on day 21; ED50 % estimated by inspection; read-out: Adjuvant Arthritic ED 50
Record value = log10 of ED50 given in mg/kg.

# example entries with known answers
{"COMPOUND": "Cn1c(C(N)(C(F)(F)F)C(F)(F)F)cc(-c2ccc(F)cc2)c1-c1ccc(F)cc1", "TEST_VALUE": 0.41}
{"COMPOUND": "CNC(c1cc(-c2ccc(F)cc2)c(-c2ccc(F)cc2)n1C)(C(F)(F)F)C(F)(F)F", "TEST_VALUE": 0.00}
{"COMPOUND": "NC(c1cc(-c2ccc(Cl)cc2)c(-c2ccc(Cl)cc2)[nH]1)(C(F)(F)F)C(F)(F)F", "TEST_VALUE": 0.64}
{"COMPOUND": "NC(c1cc(-c2ccc(F)cc2)c(-c2cccnc2)[nH]1)(C(F)(F)F)C(F)(F)F", "TEST_VALUE": 1.10}
{"COMPOUND": "NC(c1cc(-c2ccc(F)cc2)c(-c2ccc(F)cc2)[nH]1)(C(F)(F)F)C(F)(F)Cl (centres unmarked)", "TEST_VALUE": -0.15}
{"COMPOUND": "CN(C)c1ccc(-c2[nH]c(C(N)(C(F)(F)F)C(F)(F)F)cc2-c2ccc(F)cc2)cc1", "TEST_VALUE": 0.69}

Pending compound:
Record CNC(c1cc(-c2ccc(F)cc2)c(-c2ccc(F)cc2)[nH]1)(C(F)(F)F)C(F)(F)F . Reported log10(ED50): -0.10
